- assay target: CFTR channel in human colonic T84 cells (Homo sapiens, UniProt P13569)
- Construct: results in the phosphorylation and opening of CFTR anion channels; host or cells: human colonic T84 cells
- Sequence (P13569 whole entry): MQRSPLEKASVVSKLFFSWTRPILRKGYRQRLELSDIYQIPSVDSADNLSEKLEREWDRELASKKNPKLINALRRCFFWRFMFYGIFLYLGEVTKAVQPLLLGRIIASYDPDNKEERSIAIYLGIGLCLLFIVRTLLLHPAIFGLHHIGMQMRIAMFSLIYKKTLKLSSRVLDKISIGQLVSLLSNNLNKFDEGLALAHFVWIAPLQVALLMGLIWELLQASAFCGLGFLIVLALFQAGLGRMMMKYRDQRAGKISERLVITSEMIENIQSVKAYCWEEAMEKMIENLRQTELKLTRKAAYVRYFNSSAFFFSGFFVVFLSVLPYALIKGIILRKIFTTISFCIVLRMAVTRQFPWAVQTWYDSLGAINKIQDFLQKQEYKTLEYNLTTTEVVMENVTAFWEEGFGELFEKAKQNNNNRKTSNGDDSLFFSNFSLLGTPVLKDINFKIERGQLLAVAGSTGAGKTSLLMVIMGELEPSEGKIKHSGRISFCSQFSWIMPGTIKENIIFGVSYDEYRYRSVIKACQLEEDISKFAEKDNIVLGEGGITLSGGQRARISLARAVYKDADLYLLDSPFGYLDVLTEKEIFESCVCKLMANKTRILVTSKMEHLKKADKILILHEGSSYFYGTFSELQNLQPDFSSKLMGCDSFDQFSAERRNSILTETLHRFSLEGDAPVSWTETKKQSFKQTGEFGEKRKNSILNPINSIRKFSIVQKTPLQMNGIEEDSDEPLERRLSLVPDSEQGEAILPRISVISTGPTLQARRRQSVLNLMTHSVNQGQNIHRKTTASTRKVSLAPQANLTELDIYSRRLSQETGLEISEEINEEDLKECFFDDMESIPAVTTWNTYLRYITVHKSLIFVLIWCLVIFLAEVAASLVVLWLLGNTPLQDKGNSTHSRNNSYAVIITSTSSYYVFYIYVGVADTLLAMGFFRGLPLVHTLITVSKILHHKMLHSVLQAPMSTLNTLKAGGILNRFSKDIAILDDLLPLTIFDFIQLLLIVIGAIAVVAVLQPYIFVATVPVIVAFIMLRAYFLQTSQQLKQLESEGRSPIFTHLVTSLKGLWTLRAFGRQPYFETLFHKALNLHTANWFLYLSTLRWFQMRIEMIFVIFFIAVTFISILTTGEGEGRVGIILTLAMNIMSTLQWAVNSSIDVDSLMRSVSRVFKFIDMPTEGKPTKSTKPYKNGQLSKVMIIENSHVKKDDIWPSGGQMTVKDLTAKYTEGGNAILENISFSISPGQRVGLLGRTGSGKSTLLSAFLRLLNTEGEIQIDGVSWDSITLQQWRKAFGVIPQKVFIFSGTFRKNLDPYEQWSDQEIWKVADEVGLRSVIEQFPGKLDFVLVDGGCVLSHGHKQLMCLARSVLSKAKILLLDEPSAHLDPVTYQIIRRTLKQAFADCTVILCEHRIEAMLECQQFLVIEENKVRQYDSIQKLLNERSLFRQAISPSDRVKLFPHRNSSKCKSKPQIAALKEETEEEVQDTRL
- measurement description: T84 assay (FLIPR membrane potential dye, forskolin/IBMX-stimulated CFTR)
- Format: cell-based
- condition summary: average of at least 2 runs unless annotated n = 1
test readout: IC50 (µM)

Study these solved cases before continuing.
INSERT INTO assay_data (molecule, assay_target, readout_units, recorded_value) VALUES
  ('OCCN(Cc1ccc(COc2ncc(-c3cc(Cl)c(O)c(Cl)c3)nn2)cc1)Cc1ccccc1Cl', 'CFTR channel in human colonic T84 cells (Homo sapiens, UniProt P13569)', 'µM', 3.36),
  ('Oc1c(Cl)cc(-c2cnc(OCCc3ccc(F)cc3)nn2)cc1Cl', 'CFTR channel in human colonic T84 cells (Homo sapiens, UniProt P13569)', 'µM', 2.33);

I: Cc1cc(Cl)ccc1OCc1ncc(-c2cc(Cl)c(O)c(Cl)c2)nn1
II: CC(C)(C)c1ccc(CCOc2ncc(-c3cc(Br)c(O)c(Br)c3)nn2)cc1
III: CN(CCOc1ncc(-c2cc(Cl)c(O)c(Cl)c2)nn1)Cc1ccccc1
### Prompt Please give the order of these molecules when sorted by IC50, largest value leading. Provide the labels, sequenced as the question asks.
### Response III, I, II
(III: 18.9 µM, I: 10.5 µM, II: 0.64 µM)

P: Oc1c(Br)cc(-c2cnc(OCc3ccc(CN4CCOCC4)cc3)nn2)cc1Br
Q: O=C(c1ccco1)N1CCN(Cc2ccc(COc3ncc(-c4cc(Cl)c(O)c(Cl)c4)nn3)cc2)CC1
### Prompt Form field 'greater IC50' accepts P or Q ; which applies? Identify your selection by its label.
### Response P
(P: 12.9 µM, Q: 4.47 µM)

* * *

- assay target: CFTR channel in human colonic T84 cells (Homo sapiens, UniProt P13569)
- Construct: results in the phosphorylation and opening of CFTR anion channels; host or cells: human colonic T84 cells
- measurement description: T84 assay (FLIPR membrane potential dye, forskolin/IBMX-stimulated CFTR)
- Format: cell-based
- condition summary: average of at least 2 runs unless annotated n = 1
test readout: IC50 (µM)

Study these solved cases before continuing.
INSERT INTO assay_data (compound, assay_target, recorded_value) VALUES
  ('Oc1c(Br)cc(-c2cnc(C(O)(c3ccccc3)c3ccccc3)nn2)cc1Br', 'CFTR channel in human colonic T84 cells (Homo sapiens, UniProt P13569)', 4.93),
  ('Oc1c(Cl)cc(-c2cnc(OCc3ccc(CNC(CN4CCOCC4)c4ccccc4)cc3)nn2)cc1Cl (centres unmarked)', 'CFTR channel in human colonic T84 cells (Homo sapiens, UniProt P13569)', 2.27),
  ('Oc1c(Br)cc(-c2cnc(OCc3cnc(Br)s3)nn2)cc1Br', 'CFTR channel in human colonic T84 cells (Homo sapiens, UniProt P13569)', 3.23),
  ('Oc1c(Br)cc(-c2cnc(OCCc3ccc(Cl)c(Cl)c3)nn2)cc1Br', 'CFTR channel in human colonic T84 cells (Homo sapiens, UniProt P13569)', 0.26),
  ('Oc1c(Br)cc(-c2cnc(OC3CCc4ccccc4C3)nn2)cc1Br (centres unmarked)', 'CFTR channel in human colonic T84 cells (Homo sapiens, UniProt P13569)', 1.18);

a: Oc1c(Br)cc(-c2cnc(OCc3ccc(-c4ccccc4)cc3)nn2)cc1Br
b: CN(C)CCCOc1ccc(CN(C)Cc2ccc(COc3ncc(-c4cc(Cl)c(O)c(Cl)c4)nn3)cc2)cc1
c: Cc1cncc(Oc2ccc(CN(C)Cc3ccc(COc4ncc(-c5cc(Cl)c(O)c(Cl)c5)nn4)cc3)cc2)n1
### Prompt Please give the order of these compounds when sorted by IC50, largest value leading. Provide the labels, sequenced as the question asks.
### Response b, c, a
(b: 7.54 µM, c: 4.8 µM, a: 0.89 µM)

* * *

- assay target: CFTR channel in human colonic T84 cells (Homo sapiens, UniProt P13569)
- Construct: results in the phosphorylation and opening of CFTR anion channels; host or cells: human colonic T84 cells
- measurement description: T84 assay (FLIPR membrane potential dye, forskolin/IBMX-stimulated CFTR)
- Type: cell-based
- condition summary: average of at least 2 runs unless annotated n = 1
Counter-ions that a name gives are not always drawn.
test readout: IC50 (µM)

INSERT INTO measurements (compound, test_readout, readout_units, recorded_value) VALUES
  ('Oc1c(Cl)cc(-c2cnc(NCc3ccc(Cl)cc3)nn2)cc1Cl', 'IC50', 'µM', 6.14),
  ('Oc1c(Cl)cc(-c2cnc(NCc3ccc(Cl)c(Cl)c3)nn2)cc1Cl [Compound 133, formate salt]', 'IC50', 'µM', 23.7),
  ('Oc1c(Br)cc(-c2cnc(OCc3ccc(OC(F)(F)F)cc3)nn2)cc1Br', 'IC50', 'µM', 15.5);

1: Oc1c(Cl)cc(-c2cnc(OCc3ccc(CNC(CN4CCCC4)c4ccccc4)cc3)nn2)cc1Cl (centres unmarked)
2: CN(Cc1ccc(COc2ncc(-c3cc(Cl)c(O)c(Cl)c3)nn2)cc1)Cc1cccc(CN2CCOCC2)c1
3: CN(C)CCCOc1cccc(CN(C)Cc2ccc(COc3ncc(-c4cc(Cl)c(O)c(Cl)c4)nn3)cc2)c1
4: Oc1c(Cl)cc(-c2cnc(OCc3ccc(CNCc4cccc(Cl)c4Cl)cc3)nn2)cc1Cl
5: Oc1c(Cl)cc(-c2cnc(OCc3ccc(CN4CCCc5ccccc54)cc3)nn2)cc1Cl
### Prompt Please give the order of these compounds when sorted by IC50, largest value leading. Provide the labels, sequenced as the question asks.
### Response 1, 5, 2, 4, 3

* * *

- assay target: CFTR channel in human colonic T84 cells (Homo sapiens)
- Construct: results in the phosphorylation and opening of CFTR anion channels; host or cells: human colonic T84 cells
- measurement description: T84 assay (FLIPR membrane potential dye, forskolin/IBMX-stimulated CFTR)
- Assay type: cell-based
- condition summary: average of at least 2 runs unless annotated n = 1
test readout: IC50 (µM)

Study these solved cases before continuing.
INSERT INTO results (compound, test_readout, recorded_value) VALUES
  ('Oc1c(Br)cc(-c2cnc(OCc3ccccn3)nn2)cc1Br [Compound 104]', 'IC50', 16),
  ('O=C(c1cccnc1)N1CCN(Cc2ccc(COc3ncc(-c4cc(Cl)c(O)c(Cl)c4)nn3)cc2)CC1 [Compound 224]', 'IC50', 11.8),
  ('Oc1c(Br)cc(-c2cnc(COc3ccc4c(c3)CCC4)nn2)cc1Br [Compound 48]', 'IC50', 14.8),
  ('Oc1c(Br)cc(-c2cnc(OCc3ccc(F)c(F)c3)nn2)cc1Br [Compound 3]', 'IC50', 0.48);

A: Cc1ccc(OCc2ncc(-c3cc(Br)c(O)c(Br)c3)nn2)c2c1CCC2 [Compound 45]
B: Oc1c(Br)cc(-c2cnc(OCc3ccc(F)cc3F)nn2)cc1Br [Compound 4]
C: CN(C)c1cccc(COc2ncc(-c3cc(Br)c(O)c(Br)c3)nn2)c1 [Compound 17]
D: CCN(Cc1ccccc1)Cc1ccc(COc2ncc(-c3cc(Cl)c(O)c(Cl)c3)nn2)cc1 [Compound 192]
### Prompt Sort low-to-high on IC50, please. Provide the labels, sequenced as the question asks.
### Response B, C, D, A
(B: 0.54 µM, C: 1.17 µM, D: 2.13 µM, A: 14.1 µM)

* * *

- assay target: CFTR channel in human colonic T84 cells (Homo sapiens, UniProt P13569)
- Construct: results in the phosphorylation and opening of CFTR anion channels; host or cells: human colonic T84 cells
- measurement description: T84 assay (FLIPR membrane potential dye, forskolin/IBMX-stimulated CFTR)
- Assay type: cell-based
- condition summary: average of at least 2 runs unless annotated n = 1
test readout: IC50 (µM)

Study these solved cases before continuing.
INSERT INTO assay_data (compound, test_readout, recorded_value) VALUES
  ('Cc1ccc(Cl)c(OCc2ncc(-c3cc(Br)c(O)c(Br)c3)nn2)c1 [Compound 34]', 'IC50', 11.6),
  ('Oc1c(Cl)cc(-c2cnc(OCc3ccccc3F)nn2)cc1Cl [Compound 127]', 'IC50', 5.46),
  ('CCN(CC)CC(NCc1ccc(COc2ncc(-c3cc(Cl)c(O)c(Cl)c3)nn2)cc1)c1ccccc1 (centres unmarked) [Compound 190]', 'IC50', 21),
  ('Cc1ccc(C(C)C)c(OCc2ncc(-c3cc(Br)c(O)c(Br)c3)nn2)c1 [Compound 57]', 'IC50', 26.8),
  ('Oc1c(Cl)cc(-c2cnc(OCc3cccc(OC(F)(F)F)c3)nn2)cc1Cl [Compound 153]', 'IC50', 2.17);

I: O=C(c1ccccc1Cl)N1CCN(Cc2ccc(COc3ncc(-c4cc(Cl)c(O)c(Cl)c4)nn3)cc2)CC1 [Compound 220]
II: Oc1c(Br)cc(-c2cnc(OCc3cccc(Br)c3)nn2)cc1Br [Compound 25]
### Prompt Would you mind telling me which has the lower recorded IC50 between I and II ? Identify your selection by its label.
### Response I

1: Oc1c(Br)cc(-c2cnc(OCc3ccccc3Cl)nn2)cc1Br [Compound 18]
2: Oc1c(Cl)cc(-c2cnc(OCc3ccc(CN4CCN(Cc5cccnc5)CC4)cc3)nn2)cc1Cl [Compound 158]
### Prompt Form field 'greater IC50' accepts 1 or 2 ; which applies? Identify your selection by its label.
### Response 2
(2: 14.2 µM, 1: 1.18 µM)
